- System: Apis cernan
- Test summary: Toxicity test on adult worker bees of Apis cernan, small beaker method
- Assay type: in vivo
- Setup conditions: 500 ppm, 48 hours
Attribute: Toxicity determination Apis cernan Mortality (%)
Kindly answer with a numeric value in %, unit omitted.

- Compound: "COC(=O)C1(CC#N)Nc2c([S+]([O-])C(F)(F)F)c(C#N)nn2-c2c(Cl)cc(C(F)(F)F)cc21 (centres unmarked)"
  Recorded number: 8
- Compound: "CC[S+]([O-])c1c(C#N)nn2c1NC(CO)(CC#N)c1cc(C(F)(F)F)cc(Cl)c1-2 (centres unmarked)"
  Recorded number: 0
- Compound: "CSc1nn2c(c1S(=O)(=O)c1ccccc1)NC(C)(C)c1nc(F)ncc1-2"
  Recorded number: 11
- Compound: "COc1ccc(-c2cn3c(c2C#N)NC(C#N)(C#N)c2ccc([N+](=O)[O-])cc2-3)cc1"
  Recorded number: 0
- Compound: "N#Cc1cn2c(c1C#N)NC(C#N)(C#N)c1ccc(N)cc1-2"
  Recorded number: 6
- Compound: "C=CC1(CCl)Nc2c([S+](C)[O-])c(C#N)nn2-c2c(Cl)cc(C(F)(F)F)cc21 (centres unmarked)"
  Recorded number: 5
- Compound: "N#Cc1cn2c(c1C#N)NC(C#N)(C#N)c1ccc(Br)cc1-2"
  Recorded number: 5

Input CNC(=O)Nc1c(C#N)nn2c1NC(C)(C)c1ccccc1-2 . Output Toxicity determination Apis cernan Mortality (%): 5

====

Attribute: Toxicity determination Apis cernan Mortality (%)
- Tested on: Apis cernan
- Test summary: Toxicity test on adult worker bees of Apis cernan, small beaker method
- Format: in vivo
- Setup conditions: 500 ppm, 48 hours
Kindly answer with a numeric value in %, unit omitted.

Below, 3 compounds whose answers are already recorded.
- Compound: "Nc1ccc2c(c1)-n1nc(C(F)(F)F)c(-c3ccc(F)cc3)c1NC2(C(F)(F)F)C(F)(F)F"
  Recorded number: 12
- Compound: "N#Cc1nn2c(c1[S+]([O-])C(F)(F)F)NC(CC(=O)O)(C(=O)O)c1cc(C(F)(F)F)cc(Cl)c1-2 (centres unmarked)"
  Recorded number: 3
- Compound: "C[S+]([O-])c1nn2c(c1C#N)NC(F)(C(F)(F)F)c1ccccc1-2 (centres unmarked)"
  Recorded number: 10

Input C=CC1(C=C)Nc2c(Br)c(CC)nn2-c2c(Cl)cc(C(F)(F)F)cc21 . Output Toxicity determination Apis cernan Mortality (%): 10

Input CC1(C)Nc2c([N+](=O)[O-])c(C#N)nn2-c2ccccc21 . Output Toxicity determination Apis cernan Mortality (%): 6

Input C[S+]([O-])c1c(C#N)nn2c1NC(CO)(CC#N)c1cc(C(F)(F)F)cc(Cl)c1-2 (centres unmarked) . Output Toxicity determination Apis cernan Mortality (%): 4

Input O=[N+]([O-])c1cc2n(n1)-c1cnccc1C(F)(CC(F)(F)F)N2 (centres unmarked) . Output Toxicity determination Apis cernan Mortality (%): 8

Input C=CC1Nc2c(-c3cc(C)oc3C)c(C#N)nn2-c2c(Cl)cc(C(F)(F)F)cc21 (centres unmarked) . Output Toxicity determination Apis cernan Mortality (%): 2

====

- Test system: Bombyx mori L.
- Test summary: Toxicity test on 2nd-instar larvae of Bombyx mori L., leaf immersion feeding method
- Format: in vivo
- Setup conditions: 1000 ppm, 24 hours
Attribute: Toxicity determination Bombyx mori L. Mortality (%)
Kindly answer with a numeric value in %, unit omitted.

Input N#CCC1(C(N)=O)Nc2c([S+]([O-])C(F)(F)F)c(C#N)nn2-c2c(Cl)cc(C(F)(F)F)cc21 (stereo not shown) [Compound C32] . Output Toxicity determination Bombyx mori L. Mortality (%): 6

Input CC1(C)Nc2c(Br)c(C(=O)N3CCCCC3)nn2-c2ccccc21 [Compound A7] . Output Toxicity determination Bombyx mori L. Mortality (%): 6

Input C=CC1(CC(F)(F)F)Nc2c([S+]([O-])C(F)(F)F)c(C#N)nn2-c2c(Cl)cc(C(F)(F)F)cc21 (stereo not shown) [Compound C14] . Output Toxicity determination Bombyx mori L. Mortality (%): 10

Input C[S+]([O-])c1c(C#N)nn2c1NC(CO)(CC#N)c1cc(C(F)(F)F)cc(Cl)c1-2 (stereo not shown) [Compound C26] . Output Toxicity determination Bombyx mori L. Mortality (%): 4

Input N#Cc1cn2c(c1C#N)NC(C#N)(C#N)c1ccc(N)cc1-2 [Compound B7] . Output Toxicity determination Bombyx mori L. Mortality (%): 6

Input C=CC1(CCl)Nc2c(-c3cc(C)oc3C)c(C#N)nn2-c2c(Cl)cc(C(F)(F)F)cc21 (stereo not shown) [Compound C10] . Output Toxicity determination Bombyx mori L. Mortality (%): 10

Input COc1ccc(-c2cn3c(c2C(C)=O)NC(C#N)(C#N)c2ccc([N+](=O)[O-])cc2-3)cc1 [Compound B3] . Output Toxicity determination Bombyx mori L. Mortality (%): 0

Input CC1(C)Nc2c([S+]([O-])C(F)(F)F)c(C#N)nn2-c2ccccc21 (stereo not shown) [Compound A8] . Output Toxicity determination Bombyx mori L. Mortality (%): 12

Input COC(=O)/C=C/C1(CC#N)Nc2c([S+]([O-])C(F)(F)F)c(C#N)nn2-c2c(Cl)cc(C(F)(F)F)cc21 (stereo not shown) [Compound C58] . Output Toxicity determination Bombyx mori L. Mortality (%): 4

Input C[S+]([O-])c1nn2c(c1C#N)NC(F)(C(F)(F)F)c1ccccc1-2 (stereo not shown) [Compound A26] . Output Toxicity determination Bombyx mori L. Mortality (%): 7

Input O=[N+]([O-])c1cc2n(n1)-c1cnccc1C(F)(CC(F)(F)F)N2 (stereo not shown) [Compound A43] . Output Toxicity determination Bombyx mori L. Mortality (%): 3
